These entries and their values trace back to paper PMC6044684.

- Target under test: epidermal growth factor receptor (EGFR) (Homo sapiens, UniProt P00533)
- Sequence (P00533 25-1210): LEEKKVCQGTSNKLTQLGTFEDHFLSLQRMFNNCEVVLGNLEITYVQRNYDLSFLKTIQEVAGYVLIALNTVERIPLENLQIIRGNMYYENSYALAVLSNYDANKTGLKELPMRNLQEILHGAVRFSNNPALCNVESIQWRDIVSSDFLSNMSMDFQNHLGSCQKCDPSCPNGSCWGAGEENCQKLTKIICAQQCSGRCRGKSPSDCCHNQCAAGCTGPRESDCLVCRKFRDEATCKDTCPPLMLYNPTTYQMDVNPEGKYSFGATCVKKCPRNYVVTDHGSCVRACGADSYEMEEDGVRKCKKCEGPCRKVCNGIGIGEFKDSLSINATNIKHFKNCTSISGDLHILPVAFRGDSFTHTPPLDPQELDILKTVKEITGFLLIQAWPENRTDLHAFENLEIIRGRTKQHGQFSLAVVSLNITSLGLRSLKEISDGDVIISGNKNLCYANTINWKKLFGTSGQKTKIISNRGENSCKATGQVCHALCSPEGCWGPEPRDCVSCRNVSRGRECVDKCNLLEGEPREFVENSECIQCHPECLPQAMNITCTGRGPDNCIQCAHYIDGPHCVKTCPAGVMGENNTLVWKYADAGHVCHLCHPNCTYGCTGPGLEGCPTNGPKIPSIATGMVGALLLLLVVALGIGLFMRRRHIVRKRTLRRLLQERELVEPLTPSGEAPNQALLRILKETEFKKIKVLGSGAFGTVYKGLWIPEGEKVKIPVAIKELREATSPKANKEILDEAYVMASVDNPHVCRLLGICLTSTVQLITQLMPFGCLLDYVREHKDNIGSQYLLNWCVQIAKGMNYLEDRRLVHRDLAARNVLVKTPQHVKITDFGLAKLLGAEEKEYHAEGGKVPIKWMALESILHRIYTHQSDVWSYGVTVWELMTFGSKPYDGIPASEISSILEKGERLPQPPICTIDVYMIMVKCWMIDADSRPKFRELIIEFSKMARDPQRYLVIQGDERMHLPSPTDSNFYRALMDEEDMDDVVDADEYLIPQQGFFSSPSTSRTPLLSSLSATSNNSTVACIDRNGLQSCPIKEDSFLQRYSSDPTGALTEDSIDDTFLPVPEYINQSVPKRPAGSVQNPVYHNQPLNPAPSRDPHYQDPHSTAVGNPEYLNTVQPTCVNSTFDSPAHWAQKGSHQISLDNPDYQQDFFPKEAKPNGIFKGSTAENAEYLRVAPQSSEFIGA
Attribute measured: Kd (µM)
Express the result in µM but write the number alone.

Exercise: Give reported Kd for Clc1ccc(C2=NN(c3nc(C45CC6CC(CC(C6)C4)C5)cs3)C(c3ccccc3)C2)c(Cl)c1 (stereo not shown) (epidermal growth factor receptor (EGFR) (Homo sapiens, UniProt P00533))
Key: 11.8
